Cited source: ChEMBL document CHEMBL1132224

# PROTOCOL_TEXT: Partition coefficient (logP)
# Assay type: physicochemical
# EXPERIMENTAL_CONDITIONS: octanol/water
OBSERVATION_TYPE: logP

Please review the following examples before continuing.
{"columns": ["COMPOUND", "OBSERVATION_TYPE", "VALUE_REPORTED"],
 "data": [
  ["Cc1ccc(C(=O)N2c3ccccc3[C@H](NCc3ccccc3)[C@@H](O)[C@@H]2C)cc1", "logP", 4.52],
  ["CN[C@H]1c2cc(C#N)ccc2OC(C)(C)[C@@H]1O", "logP", 1.24],
  ["Cc1ccc(C(=O)N2c3ccccc3[C@H](N3CCN(Cc4ccccc4)CC3)[C@@H](O)[C@@H]2C)cc1", "logP", 4.51],
  ["CC(C)(C)OC(=O)CN(Cc1ccccc1)[C@H]1c2cc(C#N)ccc2OC(C)(C)[C@@H]1O", "logP", 3.76],
  ["CCN(CC)CCCC(C)N[C@H]1c2ccccc2N(C(=O)c2ccc(C)cc2)[C@@H](C)[C@@H]1O (stereo partly specified)", "logP", 4.2],
  ["CC1(C)Oc2ccc(C#N)cc2[C@H](NCc2ccccc2)[C@H]1O", "logP", 3.12],
  ["CC(C)(C)OC(=O)CN[C@H]1c2cc(C#N)ccc2OC(C)(C)[C@@H]1O", "logP", 1.79],
  ["CC1(C)Oc2ccc(C#N)cc2[C@H](N2CCN(Cc3ccccc3)CC2)[C@H]1O", "logP", 3.11]
]}

P = Cc1ccc(C(=O)N2c3ccccc3[C@H](N3CCCC3)[C@@H](O)[C@@H]2C)cc1
Q = CCN(CC)CCCC(C)N[C@H]1c2ccccc2N[C@@H](C)[C@@H]1OC(=O)c1ccc(C)cc1 (stereo partly specified)
Query block: Given P and given Q , which shows the smaller recorded logP? # answer = label of selected item
Result block: P
